Reported pKd, PSMA (PSMA-expressing LNCaP cells) (Homo sapiens).
Numbered stars: 1 amine (or outer) side, 2 acyl side, 3 side chain; on linkers, the order of the positions; unused ones are H or OH. Square brackets hold non-standard residues; d marks the D form. Side chains are listed from the residue outwards. Peptide text beside a SMILES is read from it. γGlu = O=C(O)[C@H](CCC(=O)[*:2])N[*:1]; PEG6 = NCCOCCOCCOCCOCCOCCOCCC(=O)O; Dap = NC[C@H](N)C(=O)O; CO = O=C([*:1])[*:2]
By convention, pKd is the negative base-10 log of a molar concentration.

N[C@@H](CNC(=O)[C@H](Cc1ccccc1)NC(=O)[C@H](CCC(=O)O)NC(=O)CC[C@H](NC(=O)N[C@@H](CCC(=O)O)C(=O)O)C(=O)O)C(=O)N[C@@H](CC(=O)O)C(=O)N[C@@H](CS)C(=O)O [compound 4] (H-[Dap]([Phe-Glu-γGlu-CO-Glu])-Asp-Cys-OH) :: 7.22
N[C@@H](CNC(=O)CC[C@H](NC(=O)N[C@@H](CCC(=O)O)C(=O)O)C(=O)O)C(=O)N[C@@H](CC(=O)O)C(=O)N[C@@H](CS)C(=O)O [compound 3] (H-[Dap]([γGlu-CO-Glu])-Asp-Cys-OH) :: 6.75

Name the value of pKd reported for N[C@@H](CNC(=O)[C@H](Cc1ccccc1)NC(=O)CCOCCOCCOCCOCCOCCOCCNC(=O)CC[C@H](NC(=O)N[C@@H](CCC(=O)O)C(=O)O)C(=O)O)C(=O)N[C@@H](CC(=O)O)C(=O)N[C@@H](CS)C(=O)O [compound 8] (H-[Dap]([Phe-PEG6-γGlu-CO-Glu])-Asp-Cys-OH) when tested on PSMA (PSMA-expressing LNCaP cells) (Homo sapiens). 6.47

Source: paper PMC9190123
